Sourced from ChEMBL document CHEMBL1201862

ASSAY METHOD TEXT: Luminescence Cell-Based Dose Confirmation HTS to Identify Activators of 5'UTR Stem-Loop Driven Alpha-Synuclein mRNA Translation in H4 Neuroglioblastoma Cells. [Related pubchem assays: 1829 (Project Summary), 1814 (Primary HTS)]
Assay type: functional
Calls of active or inactive are those of the source.
Kindly supply the reported EC50 values for the records listed here.

Prompt line: Using the record for "Nc1nc(CSCc2ccccc2)nc(N2CCOCC2)n1" , report its EC50.
Response line: > 120 µM (not active)

Prompt line: Next entry: Cc1ccc(OC(=O)NC2CCS(=O)(=O)C2)cc1C (centres undefined)
Response line: > 120 µM (not active)

Prompt line: Next up: "Cc1ccccc1C(=O)ON=C(N)c1cccc([N+](=O)[O-])c1"
Response line: 13.8 µM (active)

Prompt line: Let us now turn to "CC(=O)Nc1ccc(SCc2ncc(-c3ccccc3)o2)cc1"
Response line: 34.3 µM (active)

Prompt line: Input C=CCn1c(SCC(N)=O)nnc1-c1cc2c(s1)CCC(CC)C2 (centres undefined)
Response line: 3 µM (active)

Prompt line: How about "c1ccc(-c2onc(-c3ccco3)c2-c2ccc3[nH]ccc3c2)cc1" ?
Response line: 14.3 µM (active)

Prompt line: How about "Cc1ccc(-n2sc3ccccc3c2=O)cc1" ?
Response line: > 120 µM (not active)

Prompt line: What do we get for CCc1ccc(CN(C(=O)c2cc3ccccc3oc2=O)C2CCS(=O)(=O)C2)cc1 (centres undefined) ?
Response line: 27.7 µM (active)

Prompt line: Then CC1CCC(NC(=O)Cn2c(=O)[nH]c3ccsc3c2=O)CC1 (centres undefined) ?
Response line: 12.4 µM (active)

###

MEASURED TARGET: Cytochrome P450 3A4 (Homo sapiens, UniProt P08684);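 note: confirmatory qHTS run detecting inhibitors and substrates of CYP3A4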
Sequence (P08684 whole entry): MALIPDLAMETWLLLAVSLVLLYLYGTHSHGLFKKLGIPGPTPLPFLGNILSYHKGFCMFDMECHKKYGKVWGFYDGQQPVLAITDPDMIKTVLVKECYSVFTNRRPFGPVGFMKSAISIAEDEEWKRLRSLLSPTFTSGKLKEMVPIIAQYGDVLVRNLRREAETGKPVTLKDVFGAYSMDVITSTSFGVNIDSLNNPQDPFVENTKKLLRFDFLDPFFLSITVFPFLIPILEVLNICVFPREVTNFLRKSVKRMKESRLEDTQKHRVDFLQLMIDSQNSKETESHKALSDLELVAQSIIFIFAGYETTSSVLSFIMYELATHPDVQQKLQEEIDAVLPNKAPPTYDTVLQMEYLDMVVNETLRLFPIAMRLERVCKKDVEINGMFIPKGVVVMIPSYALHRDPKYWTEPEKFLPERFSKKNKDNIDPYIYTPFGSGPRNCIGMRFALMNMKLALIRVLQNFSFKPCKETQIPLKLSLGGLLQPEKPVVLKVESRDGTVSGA
CONDITION NOTES: Potency
READOUT LABEL: AC50

Prompt line: Any idea what AC50 came out for "CCN(CC)c1cccc(O)c1" on Cytochrome P450 3A4 (Homo sapiens, UniProt P08684)?
Response line: 31.6 µM (inconclusive)

Prompt line: "COc1ccccc1/C=C/C(=O)c1cccs1" , same question.
Response line: 25.1 µM (inconclusive)

Prompt line: Queued: "Cc1ccc(S(=O)(=O)Oc2ccc(/N=N/c3ccc(-c4ccc(/N=N/c5c(O)ccc6cc(S(=O)(=O)O)cc(S(=O)(=O)O)c56)c(C)c4)cc3C)cc2)cc1"
Response line: 25.1 µM (inconclusive)

Prompt line: Moving on to the next compound: CC1(C)OC2CC3C4CC(F)C5=CC(=O)C=C[C@@]5(C)[C@@]4(F)C(O)C[C@@]3(C)[C@]2(C(=O)CO)O1 (stereo partly drawn)
Response line: 39.8 µM (inconclusive)

Prompt line: Try this compound too: "CCC1=C2CC[C@H]3C(=O)NC(=O)[C@H]3[C@H]2[C@@]2(C)C(=O)N(CC3CC3)C(=O)N2C1=O"
Response line: 31.6 µM (inconclusive)

Prompt line: Next up: CNC(=O)C1(C)C=CC2(CCCCC2)N1C(=O)OC (stereo not drawn)
Response line: 25.1 µM (inconclusive)

Prompt line: Also, COC(=O)CNC(=O)C1(CC(C)C)C=CCN1C(C)=O (stereo not drawn) please.
Response line: 25.1 µM (inconclusive)

Prompt line: Likewise for "Cc1nc2ccccn2c(=O)c1CCN1CCC(C(=O)c2ccc(F)cc2)CC1" ?
Response line: 20 µM (inconclusive)
